Tested on: CAL-51
PROCEDURE_DETAILS: normalised response (% of control), CellTox Green; higher = less cell death (100 = DMSO, 0 = benzethonium chloride kill control)
RUN_PARAMETERS: incubation time: 72 h

# COMPOUND, SCALE_UNIT, normalised response
records = [
    ("CC(C)n1cnc2c(NCCc3ccc(O)cc3)nc(-c3csc4ccccc34)nc21 [StemRegenin 1] (10000 nM)", "%", 122),
    ("CCN(CC)CCCC(C)Nc1ccnc2cc(Cl)ccc12 (stereo not given) [Chloroquine] (100000 nM)", "%", 28.5),
    ("O=C(O)CNC(=O)c1c(O)c2ccccc2n(Cc2ccccc2)c1=O [IOX-2] (500 nM)", "%", 73.4),
    ("C=CCN(/C=C1/C(=O)O[C@H](COC)[C@@]2(C)C1=C(O)C(=O)C1=C2[C@H](OC(C)=O)C[C@]2(C)C(=O)CC[C@@H]12)CC=C [Sonolisib] (1000 nM)", "%", 104),
    ("Cc1nc(C(=O)NCC(=O)O)c(O)c2ccc(Oc3ccccc3)cc12 [FG-4592] (10000 nM)", "%", 105),
    ("CC(C)(C)NC(=O)[C@H]1CC[C@H]2[C@@H]3CC[C@H]4NC(=O)C=C[C@]4(C)[C@H]3CC[C@]12C [Finasteride] (1000 nM)", "%", 107),
    ("C/C(=C\\c1csc(C)n1)[C@@H]1C[C@@H]2O[C@]2(C)CCC[C@H](C)[C@H](O)[C@@H](C)C(=O)C(C)(C)[C@@H](O)CC(=O)N1 [Ixabepilone] (1000 nM)", "%", 33.8),
    ("CCNC(=O)c1noc(-c2cc(C(C)C)c(O)cc2O)c1-c1ccc(CN2CCOCC2)cc1 [NVP-AUY922] (10 nM)", "%", 118),
    ("COc1cc(Nc2c(C#N)cnc3cc(OCCCN4CCN(C)CC4)c(OC)cc23)c(Cl)cc1Cl [Bosutinib] (10000 nM)", "%", 38.5),
    ("CC(C)(C)c1nc(-c2cccc(NS(=O)(=O)c3c(F)cccc3F)c2F)c(-c2ccnc(N)n2)s1 [Dabrafenib] (2500 nM)", "%", 106),
    ("CC(=O)[C@]1(O)Cc2c(O)c3c(c(O)c2[C@@H](O[C@H]2C[C@H](N)[C@H](O)[C@H](C)O2)C1)C(=O)c1ccccc1C3=O [Idarubicin] (100 nM)", "%", 70.2),
    ("O=[N+]([O-])c1ccc2c(c1)S(=O)(=O)C=C2 [Stattic] (500 nM)", "%", 108),
    ("O=C(O)CNC(=O)c1c(O)c2ccccc2n(Cc2ccccc2)c1=O [IOX-2] (50000 nM)", "%", 84.3),
    ("Cc1cc(Nc2nc(N[C@@H](C)c3ncc(F)cn3)ncc2Cl)[nH]n1 [AZD1480] (1000 nM)", "%", 69.4),
    ("CCNC(=O)CCC/C=C\\C[C@@H]1[C@@H](/C=C/[C@@H](O)CCc2ccccc2)[C@H](O)C[C@@H]1O [Bimatoprost] (5500 nM)", "%", 112),
    ("COc1cc(Nc2c(C#N)cnc3cc(OCCCN4CCN(C)CC4)c(OC)cc23)c(Cl)cc1Cl [Bosutinib] (100 nM)", "%", 101),
    ("CC(O)(CS(=O)(=O)c1ccc(F)cc1)C(=O)Nc1ccc(C#N)c(C(F)(F)F)c1 (stereo not given) [Bicalutamide] (10000 nM)", "%", 92.2),
    ("O=[N+]([O-])c1ccc2c(c1)S(=O)(=O)C=C2 [Stattic] (50000 nM)", "%", 34.1),
    ("Cc1nc(C(=O)NCC(=O)O)c(O)c2ccc(Oc3ccccc3)cc12 [FG-4592] (100 nM)", "%", 102),
    ("CC1(C)CCC(c2ccc(Cl)cc2)=C(CN2CCN(c3ccc(C(=O)NS(=O)(=O)c4ccc(N[C@H](CCN5CCOCC5)CSc5ccccc5)c(S(=O)(=O)C(F)(F)F)c4)cc3)CC2)C1 [Navitoclax] (100 nM)", "%", 94),
    ("CC(C)(C)NC(=O)[C@H]1CC[C@H]2[C@@H]3CC[C@H]4NC(=O)C=C[C@]4(C)[C@H]3CC[C@]12C [Finasteride] (100 nM)", "%", 101),
    ("CCn1c(C(=O)N(C2CC2)C2CC2)cc2c3c(ncn3C)c(Nc3cc(C)n(C)n3)nc21 (10000 nM)", "%", 99.5),
    ("CC(C)C[C@H](NC(=O)[C@@H](COC(C)(C)C)NC(=O)[C@H](Cc1ccc(O)cc1)NC(=O)[C@H](CO)NC(=O)[C@H](Cc1c[nH]c2ccccc12)NC(=O)[C@H](Cc1cnc[nH]1)NC(=O)[C@@H]1CCC(=O)N1)C(=O)N[C@@H](CCCNC(=N)N)C(=O)N1CCC[C@H]1C(=O)NNC(N)=O [Goserelin] (1000 nM)", "%", 105),
    ("CC(C)(C)c1nc(-c2cccc(NS(=O)(=O)c3c(F)cccc3F)c2F)c(-c2ccnc(N)n2)s1 [Dabrafenib] (25 nM)", "%", 110),
    ("CC(C)C[C@H](NC(=O)[C@@H](COC(C)(C)C)NC(=O)[C@H](Cc1ccc(O)cc1)NC(=O)[C@H](CO)NC(=O)[C@H](Cc1c[nH]c2ccccc12)NC(=O)[C@H](Cc1cnc[nH]1)NC(=O)[C@@H]1CCC(=O)N1)C(=O)N[C@@H](CCCNC(=N)N)C(=O)N1CCC[C@H]1C(=O)NNC(N)=O [Goserelin] (10000 nM)", "%", 104),
]
